Catalogue of Zone diameter values
- System: Enterococcus faecalis
- Assay: Antibacterial activity was determined against gram positive bacteria - Enterococcus faecalis (ATCC 29212). Note: test concentration or dose not given here.
- Type: functional
Property label: Zone diameter

Smiles text	Property label	Reported
COc1cc(/N=c2\ssnc2Cl)cc(OC)c1OC	Zone diameter	10 mm
COc1ccccc1/N=c1\ssnc1Cl	Zone diameter	17 mm
Clc1nss/c1=N\c1ccccc1	Zone diameter	19 mm

* * *

- Tested on: Enterococcus faecalis
- Assay: Antibacterial activity was determined against gram positive bacteria - Enterococcus faecalis (ATCC 29212); Inactive
- Assay type: functional, organism-based
Active and inactive are the calls of the source. No cut-off for these calls is given here.

Smiles text	Zone diameter
N#CC(=S)Nc1ccc2c(c1)OCCO2	inactive
COc1ccccc1/N=C(/S)C#N	inactive
COc1ccc(NC(=S)C#N)cc1	inactive
